Structures can show the parent of a compound that is named as a salt.
Each entry below lists one item and its recorded melting point value.
State the answer as a number, implicitly in °C.

compound="COc1ccc(S(=O)(=O)N[C@H]2CC[C@@H](N3CCN(c4cc(F)ccc4OCC(F)(F)F)CC3)CC2)cc1OC (as salt: fumarate)" unit_descriptor=°C val=232

Quick check: melting point of COc1ccc(S(=O)(=O)N[C@H]2CC[C@H](N3CCN(c4cc(F)ccc4OCC(F)(F)F)CC3)CC2)cc1OC (as salt: fumarate) ? 185

---

molecular target: α1b-AR (Homo sapiens, UniProt P35368)
quantity_name: Ki (µM)
State the answer as a number, implicitly in µM.

smiles_data=COc1ccc(S(=O)(=O)N[C@H]2CC[C@H](N3CCN(c4ccc(F)cc4OCC(F)(F)F)CC3)CC2)cc1OC tested_target="α1b-AR (Homo sapiens, UniProt P35368)" val=0.087

API: value(readout= Ki, system= α1b-AR (Homo sapiens, UniProt P35368), query= "CC(C)Oc1ccccc1N1CCN([C@H]2CC[C@H](NS(=O)(=O)c3cnc(Cl)c(Br)c3)CC2)CC1" ) 0.279

API: value(readout= Ki, system= α1b-AR (Homo sapiens, UniProt P35368), query= "CC(C)Oc1ccccc1N1CCN([C@H]2CC[C@H](NS(=O)(=O)c3ccc(Cl)cc3Cl)CC2)CC1" ) 0.596

API: value(readout= Ki, system= α1b-AR (Homo sapiens, UniProt P35368), query= "CC(C)Oc1ccccc1N1CCN([C@H]2CC[C@H](NS(=O)(=O)Cc3ccccc3)CC2)CC1" ) 0.2

API: value(readout= Ki, system= α1b-AR (Homo sapiens, UniProt P35368), query= "CC(C)Oc1ccccc1N1CCN([C@H]2CC[C@H](NS(=O)(=O)c3ccccc3F)CC2)CC1" ) 0.385

API: value(readout= Ki, system= α1b-AR (Homo sapiens, UniProt P35368), query= "Cc1ccc(S(=O)(=O)N[C@H]2CC[C@@H](N3CCN(c4ccccc4OC(C)C)CC3)CC2)cc1Cl" ) 0.167

API: value(readout= Ki, system= α1b-AR (Homo sapiens, UniProt P35368), query= "CC(C)Oc1ccccc1N1CCN([C@H]2CC[C@H](NS(=O)(=O)c3ccc(S(C)(=O)=O)cc3)CC2)CC1" ) 0.392

API: value(readout= Ki, system= α1b-AR (Homo sapiens, UniProt P35368), query= "CC(C)Oc1cc(F)ccc1N1CCN([C@H]2CC[C@@H](NS(=O)(=O)c3cc(Cl)ccc3F)CC2)CC1" ) 0.101

API: value(readout= Ki, system= α1b-AR (Homo sapiens, UniProt P35368), query= "COc1ccc(Cl)cc1S(=O)(=O)N[C@H]1CC[C@@H](N2CCN(c3ccc(F)cc3OC(C)C)CC2)CC1" ) 0.081

API: value(readout= Ki, system= α1b-AR (Homo sapiens, UniProt P35368), query= "COc1ccc(Cl)cc1S(=O)(=O)N[C@H]1CC[C@@H](N2CCN(c3ccc(F)cc3OCC(F)(F)F)CC2)CC1" ) 0.196

---

Target: α1b-AR (Homo sapiens, UniProt P35368)
Sequence (P35368 1-520): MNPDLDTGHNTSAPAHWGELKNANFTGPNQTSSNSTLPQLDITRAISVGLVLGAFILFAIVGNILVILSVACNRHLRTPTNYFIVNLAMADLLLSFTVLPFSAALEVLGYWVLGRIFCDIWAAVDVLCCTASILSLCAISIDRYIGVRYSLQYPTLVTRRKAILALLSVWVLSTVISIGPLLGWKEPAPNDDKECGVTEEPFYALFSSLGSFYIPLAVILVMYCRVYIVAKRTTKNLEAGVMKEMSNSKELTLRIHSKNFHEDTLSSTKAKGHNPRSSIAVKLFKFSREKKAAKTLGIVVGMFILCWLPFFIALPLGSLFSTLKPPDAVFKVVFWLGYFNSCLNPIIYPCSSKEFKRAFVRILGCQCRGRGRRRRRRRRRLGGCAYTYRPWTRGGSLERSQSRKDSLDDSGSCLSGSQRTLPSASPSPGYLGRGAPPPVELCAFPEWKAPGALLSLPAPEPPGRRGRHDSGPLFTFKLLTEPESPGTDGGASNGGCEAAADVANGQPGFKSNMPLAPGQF
Each entry below lists one item and its recorded pKi value.
The value called pKi is obtained by taking minus log10 of the concentration in mol/L.

Quick check: pKi of "COc1ccc(Cl)cc1S(=O)(=O)N[C@H]1CC[C@H](N2CCN(c3ccccc3OC(C)C)CC2)CC1" ? 6.60

Quick check: pKi of CC(C)Oc1ccccc1N1CCN([C@H]2CC[C@H](NS(=O)(=O)c3cccc(C(F)(F)F)c3)CC2)CC1 [Cpd 30] ? 6.69

Quick check: pKi of "CC(C)Oc1ccccc1N1CCN([C@H]2CC[C@H](NS(=O)(=O)c3cccc(F)c3)CC2)CC1" ? 6.26

Quick check: pKi of "O=S(=O)(N[C@H]1CC[C@H](N2CCN(c3ccc(F)cc3OCC(F)(F)F)CC2)CC1)c1cc(Cl)ccc1F" ? 6.35

Quick check: pKi of "COc1ccc(Br)cc1S(=O)(=O)N[C@H]1CC[C@H](N2CCN(c3ccccc3OC(C)C)CC2)CC1" ? 6.88

Quick check: pKi of "CCN([C@H]1CC[C@H](N2CCN(c3ccccc3OC(C)C)CC2)CC1)S(=O)(=O)c1ccc(OC)c(OC)c1" ? 6.96

Quick check: pKi of "CC(C)Oc1ccccc1N1CCN([C@H]2CC[C@H](NS(=O)(=O)c3cc(Cl)ccc3F)CC2)CC1" ? 6.36

---

Sequence of the target: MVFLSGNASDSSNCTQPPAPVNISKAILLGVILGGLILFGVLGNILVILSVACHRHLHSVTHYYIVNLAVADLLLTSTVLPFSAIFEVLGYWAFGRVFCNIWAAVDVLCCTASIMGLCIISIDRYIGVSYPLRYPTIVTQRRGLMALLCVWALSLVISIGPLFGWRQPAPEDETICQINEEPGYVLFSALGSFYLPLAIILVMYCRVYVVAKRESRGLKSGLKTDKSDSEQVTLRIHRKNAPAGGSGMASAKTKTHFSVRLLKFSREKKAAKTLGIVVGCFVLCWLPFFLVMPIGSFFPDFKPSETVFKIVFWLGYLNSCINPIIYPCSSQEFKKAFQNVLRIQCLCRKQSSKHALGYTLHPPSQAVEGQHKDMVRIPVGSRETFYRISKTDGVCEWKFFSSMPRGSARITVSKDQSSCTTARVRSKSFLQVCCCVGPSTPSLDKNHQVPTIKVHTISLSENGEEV
quantity_name: Ki (nM)
State the answer as a number, implicitly in nM.

smiles_data=O=S(=O)(N[C@H]1CC[C@@H](N2CCN(c3ccc(F)cc3OCC(F)(F)F)CC2)CC1)c1cc(Cl)ccc1F quantity_name=Ki unit_descriptor=nM val=43

Quick check: Ki of "CC(C)Oc1cc(F)ccc1N1CCN([C@H]2CC[C@@H](NS(=O)(=O)c3cc(Cl)ccc3F)CC2)CC1" ? 5.6

Quick check: Ki of "COc1ccc(Cl)cc1S(=O)(=O)N[C@H]1CC[C@@H](N2CCN(c3ccc(F)cc3OC(C)C)CC2)CC1" ? 598

Quick check: Ki of "COc1ccc(S(=O)(=O)N[C@H]2CC[C@H](N3CCN(c4ccccc4OCC(F)(F)F)CC3)CC2)cc1OC" ? 54.2

---

Each entry below lists one item and its recorded log10(Ki) value.
molecular target: α1d-AR (Homo sapiens, UniProt P25100); construct: expressed in transfected cells; host or cells: COS-7; assay: α1-Adrenergic receptor radio-ligand (125I-HEAT) binding assay, α1d subtype; settings: COS-7 cell membranes, 125I-HEAT; read-out: Receptor Binding, Ki α1d-AR
Sequence (P25100 whole entry): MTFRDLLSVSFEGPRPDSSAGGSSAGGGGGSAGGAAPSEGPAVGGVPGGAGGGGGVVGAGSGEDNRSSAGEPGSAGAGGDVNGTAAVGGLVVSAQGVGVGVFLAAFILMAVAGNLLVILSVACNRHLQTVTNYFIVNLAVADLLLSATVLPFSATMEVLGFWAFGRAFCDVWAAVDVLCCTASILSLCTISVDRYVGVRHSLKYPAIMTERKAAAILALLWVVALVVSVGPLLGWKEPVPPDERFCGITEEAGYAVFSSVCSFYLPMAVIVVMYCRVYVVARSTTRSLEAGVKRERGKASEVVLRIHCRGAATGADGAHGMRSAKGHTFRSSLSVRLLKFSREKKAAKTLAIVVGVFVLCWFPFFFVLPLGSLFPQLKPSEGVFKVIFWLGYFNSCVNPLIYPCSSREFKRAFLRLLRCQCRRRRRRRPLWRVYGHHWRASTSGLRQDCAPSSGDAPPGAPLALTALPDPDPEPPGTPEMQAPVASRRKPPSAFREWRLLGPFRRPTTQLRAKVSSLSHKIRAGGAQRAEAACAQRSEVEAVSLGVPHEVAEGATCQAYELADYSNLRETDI
Log scale reminder: Ki in nM, then log10 taken.

Below, 5 compounds whose answers are already recorded.
smiles_data=COc1ccc(S(=O)(=O)N[C@H]2CC[C@H](N3CCN(c4ccccc4OCC(F)(F)F)CC3)CC2)cc1OC quantity_name=log10(Ki) val=0.92
smiles_data=CC(C)Oc1ccccc1N1CCN([C@H]2CC[C@H](NS(=O)(=O)c3ccc(OC(F)(F)F)cc3)CC2)CC1 quantity_name=log10(Ki) val=2.05
smiles_data=CC(C)Oc1ccccc1N1CCN([C@H]2CC[C@@H](NS(=O)(=O)c3ccc(F)cc3)CC2)CC1 quantity_name=log10(Ki) val=0.68
smiles_data=COc1ccncc1S(=O)(=O)N[C@H]1CC[C@@H](N2CCN(c3ccccc3OC(C)C)CC2)CC1 quantity_name=log10(Ki) val=0.97
smiles_data=COc1ccc(S(=O)(=O)N[C@H]2CC[C@@H](N3CCN(c4ccc(F)cc4OC(C)C)CC3)CC2)cc1OC quantity_name=log10(Ki) val=0.77

Quick check: log10(Ki) of "COc1ccc(S(=O)(=O)N[C@H]2CC[C@@H](N3CCN(c4cc(F)ccc4OCC(F)(F)F)CC3)CC2)cc1OC" ? -0.24

Quick check: log10(Ki) of "CC(C)Oc1ccccc1N1CCN([C@H]2CC[C@H](NS(=O)(=O)c3cccc4cccnc34)CC2)CC1" ? 1.34

Quick check: log10(Ki) of "CC(C)Oc1ccccc1N1CCN([C@H]2CC[C@@H](NS(=O)(=O)c3cccc4cccnc34)CC2)CC1" ? 0.63

Quick check: log10(Ki) of "CC(C)Oc1ccccc1N1CCN([C@H]2CC[C@@H](NS(=O)(=O)Cc3ccccc3)CC2)CC1" ? 0.56

Quick check: log10(Ki) of "COc1ccc(Cl)cc1S(=O)(=O)N[C@H]1CC[C@H](N2CCN(c3ccc(F)cc3OCC(F)(F)F)CC2)CC1" ? 1.71

Quick check: log10(Ki) of "CC(C)Oc1cc(F)ccc1N1CCN([C@H]2CC[C@H](NS(=O)(=O)c3cc(Cl)ccc3F)CC2)CC1" ? 1.15

Quick check: log10(Ki) of "Cc1c(Cl)cccc1S(=O)(=O)N[C@H]1CC[C@@H](N2CCN(c3ccccc3OC(C)C)CC2)CC1" ? 0.04
